# protocol.summary: total protein half-life in vivo (active degradation + dilution); higher = more stable protein
# experimental.setup: wild type E. coli NCM3722; growth: P-lim chemostat; doubling time 12 h
Listed here are sequences together with their documented total protein half-life in vivo.
recorded.endpoint: total protein half-life in vivo (h)

sequence.chain	recorded.endpoint	unit.string	observed.value
MTLQQQIIKALGAKPQINAEEEIRRSVDFLKSYLQTYPFIKSLVLGISGGQDSTLAGKLCQMAINELRLETGNESLQFIAVRLPYGVQADEQDCQDAIAFIQPDRVLTVNIKGAVLASEQALREAGIELSDFVRGNEKARERMKAQYSIAGMTSGVVVGTDHAAEAITGFFTKYGDGGTDINPLYRLNKRQGKQLLAALACPEHLYKKAPTADLEDDRPSLPDEVALGVTYDNIDDYLEGKNVPQQVARTIENWYLKTEHKRRPPITVFDDFWKK	total protein half-life in vivo	h	11.6
MLKTIRKHGITLALFAAGSTGLTAAINQMTKTTIAEQASLQQKALFDQVLPAERYNNALAQSCYLVTAPELGKGEHRVYIAKQDDKPVAAVLEATAPDGYSGAIQLLVGADFNGTVLGTRVTEHHETPGLGDKIELRLSDWITHFAGKKISGADDAHWAVKKDGGDFDQFTGATITPRAVVNAVKRAGLYAQTLPAQLSQLPACGE	total protein half-life in vivo	h	11.9
MTMNSFERRNKIIQLVNEQGTVLVQDLAGVFAASEATIRADLRFLEQKGVVTRFHGGAAKIMSGNSETETQEVGFKERFQLASAPKNRIAQAAVKMIHEGMTDPTHVIWTQA	total protein half-life in vivo	h	11.5
MLKRVFLSLLVLIGLLLLTVLGLDRWMSWKTAPYIYDELQDLPYRQVGVVLGTAKYYRTGVINQYYRYRIQGAINAYNSGKVNYLLLSGDNALQSYNEPMTMRKDLIAAGVDPSDIVLDYAGFRTLDSIVRTRKVFDTNDFIIITQRFHCERALFIALHMGIQAQCYAVPSPKDMLSVRIREFAARFGALADLYIFKREPRFLGPLVPIPAMHQVPEDAQGYPAVTPEQLLELQKKQGK [P0AFY2]	total protein half-life in vivo	h	12.3
MNLSTKQKQHLKGLAHPLKPVVLLGSNGLTEGVLAEIEQALEHHELIKVKIATEDRETKTLIVEAIVRETGACNVQVIGKTLVLYRPTKERKISLPR [P0AGK4]	total protein half-life in vivo	h	12.6
MEFAFYICGLIAILATLRVITHTNPVHALLYLIISLLAISGVFFSLGAYFAGALEIIVYAGAIMVLFVFVVMMLNLGGSEIEQERQWLKPQVWIGPAILSAIMLVVIVYAILGVNDQGIDGTPISAKAVGITLFGPYVLAVELASMLLLAGLVVAFHVGREERAGEVLSNRKDDSAKRKTEEHA [P0AFE0]	total protein half-life in vivo	h	13.8
MSNQFGDTRIDDDLTLLSETLEEVLRSSGDPADQKYVELKARAEKALDDVKKRVSQASDSYYYRAKQAVYRADDYVHEKPWQGIGVGAAVGLVLGLLLARR [P0AEH5]	total protein half-life in vivo	h	12.6
MALLEICCYSMECALTAQQNGADRVELCAAPKEGGLTPSLGVLKSVRQRVTIPVHPIIRPRGGDFCYSDGEFAAILEDVRTVRELGFPGLVTGVLDVDGNVDMPRMEKIMAAAGPLAVTFHRAFDMCANPLYTLNNLAELGIARVLTSGQKSDALQGLSKIMELIAHRDAPIIMAGAGVRAENLHHFLDAGVLEVHSSAGAWQASPMRYRNQGLSMSSDEHADEYSRYIVDGAAVAEMKGIIERHQAK	total protein half-life in vivo	h	11.8
MSSYANHQALAGLTLGKSTDYRDTYDASLLQGVPRSLNRDPLGLKADNLPFHGTDIWTLYELSWLNAKGLPQVAVGHVELDYTSVNLIESKSFKLYLNSFNQTRFNNWDEVRQTLERDLSTCAQGKISVALYRLDELEGQPIGHFNGTCIDDQDITIDNYEFTTDYLENATCGEKVVEETLVSHLLKSNCLITHQPDWGSLQIQYRGRQIDREKLLRYLVSFRHHNEFHEQCVERIFNDLLRFCQPEKLSVYARYTRRGGLDINPWRSNSDFVPSTTRLVRQ	total protein half-life in vivo	h	10.9
MTGMTNVTKLASEPSGQEFLVFTLGDEEYGIDILKVQEIRGYDQVTRIANTPAFIKGVTNLRGVIVPIVDLRIKFSQVDVDYNDNTVVIVLNLGQRVVGIVVDGVSDVLSLTAEQIRPAPEFAVTLSTEYLTGLGALGDRMLILVNIEKLLNSEEMALLDSAASEVA [P0A964]	total protein half-life in vivo	h	9.75
MQFSKMHGLGNDFMVVDAVTQNVFFSPELIRRLADRHLGVGFDQLLVVEPPYDPELDFHYRIFNADGSEVAQCGNGARCFARFVRLKGLTNKRDIRVSTANGRMVLTVTDDDLVRVNMGEPNFEPSAVPFRANKAEKTYIMRAAEQTILCGVVSMGNPHCVIQVDDVDTAAVETLGPVLESHERFPERANIGFMQVVKREHIRLRVYERGAGETQACGSGACAAVAVGIQQGLLAEEVRVELPGGRLDIAWKGPGHPLYMTGPAVHVYDGFIHL [P0A6K1]	total protein half-life in vivo	h	11.9
MKVAKDLVVSLAYQVRTEDGVLVDESPVSAPLDYLHGHGSLISGLETALEGHEVGDKFDVAVGANDAYGQYDENLVQRVPKDVFMGVDELQVGMRFLAETDQGPVPVEITAVEDDHVVVDGNHMLAGQNLKFNVEVVAIREATEEELAHGHVHGAHDHHHDHDHDGCCGGHGHDHGHEHGGEGCCGGKGNGGCGCH [P0A9K9]	total protein half-life in vivo	h	8.69
MELKDYYAIMGVKPTDDLKTIKTAYRRLARKYHPDVSKEPDAEARFKEVAEAWEVLSDEQRRAEYDQMWQHRNDPQFNRQFHHGDGQSFNAEDFDDIFSSIFGQHARQSRQRPATRGHDIEIEVAVFLEETLTEHKRTISYNLPVYNAFGMIEQEIPKTLNVKIPAGVGNGQRIRLKGQGTPGENGGPNGDLWLVIHIAPHPLFDIVGQDLEIVVPVSPWEAALGAKVTVPTLKESILLTIPPGSQAGQRLRVKGKGLVSKKQTGDLYAVLKIVMPPKPDENTAALWQQLADAQSSFDPRKDWGKA	total protein half-life in vivo	h	12.8
